Below, each entry is listed with its recorded IC50 (inhibition of APRIL-mediated TACI NFκB signaling).
Biological target: T1, HA-GCN4 hAPRIL (amino acid residues 105-250) (human, UniProt O75888 105-250)
T1 sequence: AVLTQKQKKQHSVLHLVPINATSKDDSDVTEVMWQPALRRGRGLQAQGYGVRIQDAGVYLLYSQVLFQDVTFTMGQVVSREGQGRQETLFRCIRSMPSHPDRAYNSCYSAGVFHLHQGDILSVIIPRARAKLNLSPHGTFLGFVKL
Experiment: cell-based or functional assay

Known results for binders:
BINDER	ENDPOINT VALUE
monoclonal antibody 4035-062 (antibody, IgG1, V domains shown) VH: QVQLQESGPGLVKPSETLSLTCTVSGFSLTIYDVHWVRQPPGKGLEWIGVIWSDGSTDYNPSLKSRVTISKDTSKNQVSLKLSSVTAADTAVYYCARNWVDQAWFAYWGQGTLVTVSS VL: DIQMTQSPSSLSASVGDRVTITCRASKNIYSYLAWYQQKPGKAPKLLVYNAKTLPEGVPSRFSGSGSGTDFTLTISSLQPEDFATYYCQHHYGTPLTFGQGTKLEIK	~1.02 nM
monoclonal antibody 4540-063 (antibody, IgG1, V domains shown) VH: QVQLVQSGAELKKPGASVKVSCKASGYTFADYYMNWVRQAPGQGLEWMGWIFPGSGSTYYNQKFQGRVTMTVDKSSSTAYMELSRLRSDDTAVYYCARGDSGRAMDYWGQGTLVTVSS VL: DIQMTQSPSSLSASVGDRVTITCQASQDINKYLAWYQHKPGKAPKLLIHYTSTLETGVPSRFSGSGSGTDFTFTISSLQPEDIATYYCLQYDNLLTFGGGTKVEIK	~7.19 nM
monoclonal antibody 2419-0205 (antibody, IgG2, V domains shown) VH: QVQLVQSGAEVKKPGSSVKVSCKASGYTFTDYTIHWVRQAPGQGLEWMGWIYPLRGSINYAQKFQGRVTITADKSTSTAYMELSSLRSEDTAVYFCARHGAYYSNAFDYWGQGTLVTVSS VL: EIVMTQSPATLSVSPGERATLSCRASESVDNDGIRFLHWYQQKPGQAPRLLIYRASNRETGIPARFSGSGSGTEFTLTISSLQSEDFAVYYCQQSNKDPYTFGGGTKVEIK	~0.81 nM
monoclonal antibody 4540 (antibody, V domains shown, mouse-derived) VH: QVQLQQSGPELVKPGASVKISCKASGYTFADYYINWVKQRPGQGLEWIGWIFPGSGSTYYNEKFKGKATLTVDKSSSTAYMLLSSLTSEDSAVYFCARGDSGRAMDYWGQGTSVTVSS VL: DIQMTQSPSSLSASLGGKVTITCKASQDINKYIAWYQHKPGKGPRLLIHYTSTLQSGIPSRFSGSGSGRDYSFSISNLEPEDNATYYCLQYDNLLTFGAGTKLELK	~2.25 nM

Name the recorded IC50 (inhibition of APRIL-mediated TACI NFκB signaling) for 2419-1306 (antibody, V domains shown) VH: QVQLVQSGAEVKKPGASVKVSCKASGYTFTDYTIHWVRQATGQGLEWMGWIYPLRGSINYAQKFQGRVTMTANKSISTVYMELSSLRSEDTAVYFCARHGAYYSNAFDYWGQGTLVTVSS VL: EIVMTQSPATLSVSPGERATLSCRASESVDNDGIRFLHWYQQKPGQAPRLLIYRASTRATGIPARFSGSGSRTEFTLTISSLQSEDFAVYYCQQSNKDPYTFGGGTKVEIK . ~0.66 nM
